system: F380Y/beta1; experiment: modulators of BK channel variants, profiling panel, selectivity assay, cell-based, U2OS BacMam, thallium flux, beta subunits (AID 1259406); details: at 30 µM;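 further: initial slope of Thallos dye fluorescence rise after thallium is added; log ratio against the mean of 0.3% DMSO vehicle wells on the same plate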
Listing of entries alongside the reported log fold change Tl+ flux.
Respond numerically, and do not add a unit to the figure.

Worked cases, answers included:
>  <compound>
CCC(=NOc1ccc(C(F)(F)F)cn1)c1ccc(-c2ccccc2F)cc1

>  <readout value>
-0.0225

$$$$
>  <compound>
O=C(O)CSCC(=O)Nc1ccc(-c2nc3ccccc3s2)cc1

>  <readout value>
0.19

$$$$
>  <compound>
O=C(CCN1CCOCC1)Nc1cc(Cl)cc(Cl)c1

>  <readout value>
0.0335

$$$$

Lookup: Identify the reported log fold change Tl+ flux for the following entry. CC1c2cccc(O)c2C(O)=C2C(=O)[C@]3(O)C(O)=C(C(N)=O)C(=O)[C@@H](N(C)C)[C@@H]3C[C@@H]21 (stereo not given in full)
Found: -0.038

Lookup: Identify the reported log fold change Tl+ flux for the following entry. `COC(=O)c1ccc(S(=O)(=O)NNc2ncnc3cc(C(C)(C)C)sc23)n1C`
Found: 0.00797

---

experiment: HDN33 neuroblastoma growth inhibition, cell-based, chromothripsis tumors, cisplatin or BGB combos (AID 1671450); conditions: HDN33 neuroblastoma cells, at 0.5 µM, stronger effect = higher value;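 further: cells exposed to compound for four days; 0% = vehicle DMSO and 100% = cell killing by high DMSO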
endpoint: inhibition (%)
// note: answer is a bare numeric in %

Worked cases, answers included:
>  <mol>
O=c1cc(-c2cccc3c2Sc2ccccc2S3)oc(N2CCOCC2)c1

>  <endpoint>
inhibition

>  <readout value>
-20.7

$$$$
>  <mol>
Cc1c(-c2cnccn2)ssc1=S

>  <endpoint>
inhibition

>  <readout value>
-42

$$$$
>  <mol>
O=c1[nH]c(-c2ccc(C(F)(F)F)cc2)nc2c1CSCC2

>  <endpoint>
inhibition

>  <readout value>
-7.61

$$$$
>  <mol>
O=c1ncccn1[C@@H]1O[C@H](CO)[C@@H](O)[C@H]1O

>  <endpoint>
inhibition

>  <readout value>
-38.5

$$$$

Now look at this entry.
Lookup: Identify the reported inhibition for the following entry. `CCc1c2c(nc3ccc(O)cc13)-c1cc3c(c(=O)n1C2)COC(=O)[C@]3(O)CC`
Found: 84.1

---

tested on: Hepatitis C virus NS3 helicase; assay: HCV NS3 helicase inhibitors, primary screen, biochemical, fluorescence polarization, NIH Clinical Collection (AID 743270); conditions: NS3 helicase binding to Cy5-dT15 DNA, stronger effect = higher value, concentration not given here
endpoint: inhibition (%)
// note: answer is a bare numeric in %

Worked cases, answers included:
>  <compound>
COCCCCC(=NOCCN)c1ccc(C(F)(F)F)cc1

>  <value units>
%

>  <inhibition>
-1.98

$$$$
>  <compound>
CC(COc1ccccc1Cc1ccccc1)N1CCCCC1 (stereo not given)

>  <value units>
%

>  <inhibition>
-2.77

$$$$
>  <compound>
CC(=O)O[C@@]12CO[C@@H]1C[C@H](O)[C@@]1(C)C(=O)[C@H](O)C3=C(C)[C@@H](OC(=O)[C@H](O)[C@@H](NC(=O)OC(C)(C)C)c4ccccc4)C[C@](O)([C@@H](OC(=O)c4ccccc4)[C@H]21)C3(C)C

>  <value units>
%

>  <inhibition>
5.15

$$$$

Lookup: Identify the reported inhibition for the following entry. `COc1cc(C)c(/C=C/C(C)=C/C=C/C(C)=C/C(=O)O)c(C)c1C`
Found: 4.09

Lookup: Identify the reported inhibition for the following entry. `O=C1c2c(O)cc(O)cc2O[C@H](c2ccc(O)c(O)c2)[C@@H]1O`
Found: -0.4

Lookup: Identify the reported inhibition for the following entry. O=C(NC(CO)C(O)c1ccc([N+](=O)[O-])cc1)C(Cl)Cl (stereo not given)
Found: -4.09

---

experiment: HepG2 cytotoxicity, primary screen, cytotoxicity control for P. falciparum antimalarial project, cell-based, ATP luminescence (AID 2303); settings: HepG2 viability, 24-48 h, at 10 µM, stronger effect = higher value;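 further: 0% = DMSO wells and 100% = digitonin-killed cells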
In plain terms, low inhibition, meaning strictly below 40%, gives YES, and everything else gives NO.

Before answering, review these 2 worked examples.
>  <compound>
Nc1nc(N)c2c(ccc3c2ccn3CCCC2CCCNC2)n1 (stereo not drawn)

>  <label value>
NO

$$$$
>  <compound>
O=S1(=O)NCc2ccc(Nc3nccc(Nc4ccc5c(cnn5Cc5ccccc5)c4)n3)cc21

>  <label value>
YES

$$$$

Lookup: Dear reviewer, please state whether `CCn1c(-c2nonc2N)nc2c(-c3cccc(NC(=O)Nc4ccc(C#N)cc4)c3)ncc(OCCCN)c21` has inhibition strictly beneath 40%.
Found: YES

Lookup: Dear reviewer, please state whether `CN(C)Cc1cccc(-c2cc3c(-c4cnn(C)c4)c(Cl)cnc3[nH]2)c1` has inhibition strictly beneath 40%.
Found: NO

Lookup: Dear reviewer, please state whether CS(=O)(=O)c1ccc2c(c1)CCN(CCC1CCC(NC(=O)C(=Cc3cccc(C#N)c3)c3ccc(-c4ccccc4)cc3)CC1)CC2 (stereo not drawn) has inhibition strictly beneath 40%.
Found: YES

Lookup: Dear reviewer, please state whether `COc1ccccc1NC(=O)Nc1cccc(-c2ccc(-c3nc4c(C)cccc4[nH]3)s2)c1` has inhibition strictly beneath 40%.
Found: YES

Lookup: Dear reviewer, please state whether `C[C@@H]1CN(c2ccc3[nH]cc(Sc4ccc(-c5cccs5)cc4)c3c2)C[C@H](C)N1` has inhibition strictly beneath 40%.
Found: YES

Lookup: Dear reviewer, please state whether `CN1CCN(c2ccc(Nc3ncc(Cl)c(Nc4cccnc4C(N)=O)n3)cc2)CC1` has inhibition strictly beneath 40%.
Found: NO

Lookup: Dear reviewer, please state whether `CNC(=O)c1ccccc1Nc1nc(Nc2ccc(N3CCOCC3)cc2)ncc1Cl` has inhibition strictly beneath 40%.
Found: NO

Lookup: Dear reviewer, please state whether `CCn1c(-c2nonc2N)nc2c(-c3cccc(NC(=O)Nc4ccc5c(c4)CCC5)c3)ncc(OCCCN)c21` has inhibition strictly beneath 40%.
Found: YES

---

target: Single-stranded DNA-binding protein (Escherichia coli (strain K12)); test: E. coli SSB displacement from DNA, counter-screen for HCV NS3 helicase inhibitor project, biochemical, fluorescence polarization, NIH Clinical Collection (AID 743271); settings: stronger effect = higher value, concentration not given here
endpoint: inhibition (%)
// note: answer is a bare numeric in %

Worked cases, answers included:
>  <compound>
CCC1=C[C@H]2CN(C1)Cc1c([nH]c3ccccc13)[C@@](C(=O)OC)(c1cc3c(cc1OC)N(C)[C@H]1[C@@](O)(C(=O)OC)[C@H](OC(C)=O)[C@]4(CC)C=CCN5CC[C@]31[C@@H]54)C2

>  <inhibition [%]>
9.91

$$$$
>  <compound>
CCCCN1CCCC1CNC(=O)c1cc(C#N)c2ccccc2c1OC (stereo not given)

>  <inhibition [%]>
2.76

$$$$
>  <compound>
O=c1[nH]c(=O)n(C2CC(O)C(CO)O2)cc1F (stereo not given)

>  <inhibition [%]>
1.81

$$$$
>  <compound>
NCC(O)c1ccc(O)c(O)c1 (stereo not given)

>  <inhibition [%]>
0.29

$$$$
>  <compound>
CC1(C)SC2C(NC(=O)C(N)c3ccccc3)C(=O)N2C1C(=O)O (stereo not given)

>  <inhibition [%]>
-3.53

$$$$
>  <compound>
CCOC(=O)c1ccc(OC(=O)CCCCCN=C(N)N)cc1

>  <inhibition [%]>
-1.64

$$$$

Now look at this entry.
Lookup: Identify the reported inhibition for the following entry. `O=C1CN2Cc3c(ccc(Cl)c3Cl)N=C2N1`
Found: -7.03

---

assay: ICB984 medulloblastoma cell growth inhibition, synergistic combos for chromothripsis tumors, cisplatin or BGB combos (AID 1671451); conditions: ICB984 medulloblastoma cells, drug combinations, cisplatin combo, at 5 µM, stronger effect = higher value;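 further: cells exposed for 96 hours before readout; 0% = vehicle DMSO and 100% = killing by high DMSO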
Listing of entries alongside the reported inhibition.
// note: answer is a bare numeric in %

>  <molecule>
O=C(Nc1ccccc1)c1ccccc1O

>  <inhibition, %>
-15.5

$$$$

Lookup: Identify the reported inhibition for the following entry. `O=c1[nH]c(-c2ccc(C(F)(F)F)cc2)nc2c1CSCC2`
Found: -33.3

Lookup: Identify the reported inhibition for the following entry. `Cc1c(-c2cnccn2)ssc1=S`
Found: -21.2

Lookup: Identify the reported inhibition for the following entry. `O=C(Nc1ccncc1)c1cc([N+](=O)[O-])ccc1Cl`
Found: -23.5

Lookup: Identify the reported inhibition for the following entry. `O=c1cc(-c2cccc3c2Sc2ccccc2S3)oc(N2CCOCC2)c1`
Found: -31.3

Lookup: Identify the reported inhibition for the following entry. `CC(C)N=c1cc2n(-c3ccc(Cl)cc3)c3ccccc3nc-2cc1Nc1ccc(Cl)cc1`
Found: -19.4

Lookup: Identify the reported inhibition for the following entry. NC(=O)c1ncn(C2OC(CO)C(O)C2O)n1 (configuration not stated)
Found: -17.4

---

assay: growth inhibition of RCMB18 medulloblastoma cells, cell-based, cisplatin and BGB IC40 combos (AID 1671462); conditions: single agent, at 5 µM, stronger effect = higher value;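 further: cells exposed to compound for four days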
Listing of entries alongside the reported inhibition.
// note: answer is a bare numeric in %

Worked cases, answers included:
>  <molecule>
Cc1c(-c2cnccn2)ssc1=S

>  <readout value>
-29.2

$$$$
>  <molecule>
O=C(Nc1ccncc1)c1cc([N+](=O)[O-])ccc1Cl

>  <readout value>
-3.16

$$$$
>  <molecule>
CCc1c2c(nc3ccc(O)cc13)-c1cc3c(c(=O)n1C2)COC(=O)[C@]3(O)CC

>  <readout value>
62.2

$$$$

Lookup: Identify the reported inhibition for the following entry. `O=c1cc(-c2cccc3c2Sc2ccccc2S3)oc(N2CCOCC2)c1`
Found: -8.05

Lookup: Identify the reported inhibition for the following entry. `CO[C@H]1/C=C/O[C@@]2(C)Oc3c(C)c(O)c4c(O)c(c(C=NN5CCN(C)CC5)c(O)c4c3C2=O)NC(=O)/C(C)=C\C=C\[C@H](C)[C@H](O)[C@@H](C)[C@@H](O)[C@@H](C)[C@H](OC(C)=O)[C@@H]1C`
Found: -21.9

Lookup: Identify the reported inhibition for the following entry. NC(=O)c1ncn(C2OC(CO)C(O)C2O)n1 (configuration not stated)
Found: -9.79

Lookup: Identify the reported inhibition for the following entry. `CC(C)N=c1cc2n(-c3ccc(Cl)cc3)c3ccccc3nc-2cc1Nc1ccc(Cl)cc1`
Found: -9.57

These entries and their values trace back to PubChem BioAssay.
